The origin of these recorded values is PubChem BioAssay AID2060343.

# Tested on: 138582-337-R-J1-PDC spheroids with HUVEC/MSC, viability;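 note: spheroids exposed to compounds for seven days; 100% = DMSO vehicle control viability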
# Experiment: Anticancer human tumor 138582-337-R-J1-PDC patient-derived Merkel cell tumor cell line growth inhibition [IpAb]
# Condition description: second compound 0.1 µM; first compound 0.00949 µM; hits give low values
Measured endpoint: viability, T/C

Recorded viability, T/C, per entry:
Cn1cnc2c(F)c(Nc3ccc(Br)cc3Cl)c(C(=O)NOCCO)cc21 + CC(C)NCC(C(=O)N1CCN(c2ncnc3c2C(C)CC3O)CC1)c1ccc(Cl)cc1: 97.8%
CC(=O)c1c(C)c2cnc(Nc3ccc(N4CCNCC4)cn3)nc2n(C2CCCC2)c1=O + CC(C)NCC(C(=O)N1CCN(c2ncnc3c2C(C)CC3O)CC1)c1ccc(Cl)cc1: 92.3%
CC(C)(C)c1cnc(CSc2cnc(NC(=O)C3CCNCC3)s2)o1 + CCN1CCN(Cc2ccc(Nc3ncc(F)c(-c4cc(F)c5nc(C)n(C(C)C)c5c4)n3)nc2)CC1: 91.6%

Measured viability, T/C of Cn1cnc2c(F)c(Nc3ccc(Br)cc3Cl)c(C(=O)NOCCO)cc21 + CCN1CCN(Cc2ccc(Nc3ncc(F)c(-c4cc(F)c5nc(C)n(C(C)C)c5c4)n3)nc2)CC1 : 102%

Measured viability, T/C of CC(C)(C)c1cnc(CSc2cnc(NC(=O)C3CCNCC3)s2)o1 + CC(C)NCC(C(=O)N1CCN(c2ncnc3c2C(C)CC3O)CC1)c1ccc(Cl)cc1 : 104%

Measured viability, T/C of CC(=O)c1c(C)c2cnc(Nc3ccc(N4CCNCC4)cn3)nc2n(C2CCCC2)c1=O + CCN1CCN(Cc2ccc(Nc3ncc(F)c(-c4cc(F)c5nc(C)n(C(C)C)c5c4)n3)nc2)CC1 : 85.1%
